B1: PDZK1 (parent)
chain: FQAKKIPIVSSLADPLDTPPDSKE

# Variants of: B1
# procedureDetails: protein stability index of a GFP-peptide fusion (GPS, HEK-293T) (PSI 1-6); higher = more stable;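 note: lentivirally expressed fusions sorted by FACS into six bins by GFP to DsRed ratio, PSI derived from sequencing read proportions per bin multiplied by bin number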
# measurementSetup: c terminus: a fixed tail appended
quantityKind: protein stability index

// worked examples, protein stability index included
• FQAKKIPIVSSLADPLDTPRDSKE [P20R] = 3.77
• FQAKKIPIVSSLADPLDEPPDSKE [T18E] = 3.75
• FQAKKIPIVSSLADPGDTPPDSKE [L16G] = 3.85
• FQAKKIPIVSSLADPLDTHPDSKE [P19H] = 4.01

Task: Reported protein stability index, variant FQAKKIPIVSSLAKPLDTPPDSKE [D14K] : ____
Output: 3.65

Task: Reported protein stability index, variant FQAKKIPIVSSLADPLDTLPDSKE [P19L] : ____
Output: 3.2

Task: Reported protein stability index, variant FQAKKIPIVSSLADRLDTPPDSKE [P15R] : ____
Output: 3.73

Task: Reported protein stability index, variant FQAKKIPIVSSLADPLDTDPDSKE [P19D] : ____
Output: 3.87

Task: Reported protein stability index, variant FQAKKIPIVSSLADPLDTKPDSKE [P19K] : ____
Output: 3.66

Task: Reported protein stability index, variant FQAKKIPIVSSLADPLDTPADSKE [P20A] : ____
Output: 4.05

Task: Reported protein stability index, variant FQAKKIPIVSSLADALDTPPDSKE [P15A] : ____
Output: 3.61

Task: Reported protein stability index, variant FQAKKIPIVSSLADPLDTPLDSKE [P20L] : ____
Output: 3.35

Task: Reported protein stability index, variant FQAKKIPIVSSLAQPLDTPPDSKE [D14Q] : ____
Output: 3.86

Task: Reported protein stability index, variant FQAKKIPIVSSLADPLDTNPDSKE [P19N] : ____
Output: 3.88

Task: Reported protein stability index, variant FQAKKIPIVSSLADSLDTPPDSKE [P15S] : ____
Output: 3.58

Task: Reported protein stability index, variant FQAKKIPIVSSLADPIDTPPDSKE [L16I] : ____
Output: 3.91

Task: Reported protein stability index, variant FQAKKIPIVSSLADPLDTPNDSKE [P20N] : ____
Output: 3.7
